Measurement protocol: qHTS of TDP-43 Inhibitors; note: nearly all actives have a fitted effect of over 50% in size
Study conditions: TDP-43 expressing yeast growth rescue, BacTiter-Glo, 24 h; series mostly up to 46.1 µM
The campaign covered roughly 410,000 compounds. About 7,200 (1.8%) were called active. Inconclusive results (about 7%) are left out. Calls come from the whole dose curve; as a rule, active = well fitted activation curve with a large enough effect; inconclusive = small, poorly fitted or top-dose-only effect, or another doubt; inactive = no such curve, though single readings can be large or run the other way. The entries come from a sample that favours actives as a whole.
Outcomes: 1 for active, -1 for inactive

[
  {
    "Compound": "N/C(Cc1ccc([N+](=O)[O-])cc1)=N\\OC(=O)C1CCCCC1",
    "Assigned category": 1
  },
  {
    "Compound": "CC1CN(C(=O)N2CCC(C(=O)NCc3cccs3)CC2)c2ccccc2O1 (stereo unspecified)",
    "Assigned category": -1
  },
  {
    "Compound": "COc1ccccc1N1CCN(C(CNC(=O)C(=O)NCc2ccc(C)cc2)c2cccnc2)CC1 (stereo unspecified)",
    "Assigned category": -1
  },
  {
    "Compound": "COC(=O)c1ccccc1NC(=O)CSc1n[nH]c(-c2ccncc2)n1",
    "Assigned category": -1
  },
  {
    "Compound": "Cc1cc2c(cc3c(SCc4cccc(Cl)c4)nnc(C)n32)o1",
    "Assigned category": 1
  },
  {
    "Compound": "Cc1cc(NC(=O)CSCc2nc(-c3cccc(Cl)c3)oc2C)no1",
    "Assigned category": -1
  },
  {
    "Compound": "CCOc1ccc(Nc2c(S(=O)(=O)c3ccccc3)cnc3ccccc23)cc1",
    "Assigned category": -1
  },
  {
    "Compound": "CCOC(=O)c1cnc(SCC(=O)Nc2ccccc2C(=O)OC)nc1N",
    "Assigned category": 1
  },
  {
    "Compound": "CCOC(=O)c1cnc(SCC(=O)Nc2cccc(OC)c2)nc1N",
    "Assigned category": -1
  },
  {
    "Compound": "O=C(NCC(c1ccc(Cl)cc1)N1CCOCC1)c1ccccc1F (stereo unspecified)",
    "Assigned category": -1
  },
  {
    "Compound": "Cc1cccc(Cn2c(CN3CCC(C(=O)NCc4ccccc4Cl)CC3)cc3ccccc32)c1",
    "Assigned category": -1
  }
]

====

Measurement protocol: qHTS of TDP-43 Inhibitors; note: nearly all actives have a fitted effect of over 50% in size
Study conditions: TDP-43 expressing yeast growth rescue, BacTiter-Glo, 24 h; series mostly up to 46.1 µM
Excerpt: The goal of this project is to identify new chemical probes capable of reversing the toxicity associated with TDP-43 which is associated with frontotemporal lobar degeneration and amyotrophic lateral sclerosis. […] To this end, a miniaturized assay was developed to be screened against the Molecular Libraries Small Molecule Repository (MLSMR) to discover TDP-43 inhibitors. Please note that in the set-up this yeast-based assay compounds that inhibit as TDP-43, have a read-out as activators. […]
Out of some 410,000 compounds screened, about 7,200 (1.8%) were called active. Not shown: some 7% with an inconclusive outcome. Calls follow the shape of the dose curve; as a rule, active = well fitted activation curve with a large enough effect; inconclusive = small, poorly fitted or top-dose-only effect, or another doubt; inactive = no such curve, though single readings can be large or run the other way. The entries come from a sample that favours actives as a whole.
Outcomes: active, inactive

[
  {
    "Compound": "CC(C)(C)NC(=O)NC(=O)COC(=O)CCC1CCCCC1",
    "Assigned category": "inactive"
  },
  {
    "Compound": "COc1ccc2c(c1)c1ncn(Cc3ccccn3)c(=O)c1n2C",
    "Assigned category": "inactive"
  },
  {
    "Compound": "Cn1c(=O)c(C(=O)Nc2ncccn2)c(O)c2ccccc21",
    "Assigned category": "inactive"
  },
  {
    "Compound": "Cc1ccc2c(c1)N(C(=O)CCC(=O)N1CCc3ccccc3C1)CCO2",
    "Assigned category": "inactive"
  },
  {
    "Compound": "COc1ccc(N2CCN(c3cc(C)nc4nncn34)CC2)cc1",
    "Assigned category": "inactive"
  },
  {
    "Compound": "COC(=O)c1scc(-c2ccccc2)c1S(=O)(=O)Nc1ccccc1",
    "Assigned category": "active"
  },
  {
    "Compound": "CCCn1c(=O)c(-c2ccccc2)c(O)c2ccccc21",
    "Assigned category": "active"
  },
  {
    "Compound": "O=C(Nc1ccc(O)c(-c2nc3ccccc3o2)c1)c1ccc(-c2cccc(Cl)c2)o1",
    "Assigned category": "inactive"
  },
  {
    "Compound": "CCCCCn1c(=O)c(C(=O)OCC)c(Cl)c2ccccc21",
    "Assigned category": "inactive"
  },
  {
    "Compound": "CCOCc1nnc(NC(=O)CCC2CCCCC2)s1",
    "Assigned category": "inactive"
  },
  {
    "Compound": "Cc1nc(Cl)cc(N/N=C/c2ccccc2)n1",
    "Assigned category": "active"
  },
  {
    "Compound": "COc1ccc(CCNC(=O)C(=O)NCC(c2ccco2)S(=O)(=O)c2cccs2)cc1OC (stereo not drawn)",
    "Assigned category": "inactive"
  },
  {
    "Compound": "COc1cc(NC(=O)c2nn(-c3ccc(C)cc3)c(=O)c3c2c2ccccc2n3C)cc(OC)c1OC",
    "Assigned category": "inactive"
  },
  {
    "Compound": "CCN(Cc1ccccc1)S(=O)(=O)c1ccc2c(c1)CCCN2C(C)=O",
    "Assigned category": "inactive"
  },
  {
    "Compound": "Cc1ccc2c(c1)N(C(=O)CCC(=O)NCc1ccccc1F)CC(C)O2 (stereo not drawn)",
    "Assigned category": "inactive"
  },
  {
    "Compound": "Cc1cccc(OCCSc2nc3ccccc3n2CC(=O)N2CCCCC2)c1C",
    "Assigned category": "active"
  },
  {
    "Compound": "Cc1ccc2c(c1)c1ncnc(N3CCc4ccccc4C3)c1n2C",
    "Assigned category": "active"
  },
  {
    "Compound": "CCn1c(CN2C(=O)CSc3ccccc32)n[nH]c1=S",
    "Assigned category": "inactive"
  }
]

Data credit: PubChem BioAssay AID652104
